Listing of recorded Primary assay EC50 (cAMP), GIP-R, first run by entry.
target_or_test_system: T1, glucose-dependent insulinotropic peptide (gastric inhibitory polypeptide) receptor (GIPR) (human, UniProt P48546 22-466)
T1 sequence (looked up): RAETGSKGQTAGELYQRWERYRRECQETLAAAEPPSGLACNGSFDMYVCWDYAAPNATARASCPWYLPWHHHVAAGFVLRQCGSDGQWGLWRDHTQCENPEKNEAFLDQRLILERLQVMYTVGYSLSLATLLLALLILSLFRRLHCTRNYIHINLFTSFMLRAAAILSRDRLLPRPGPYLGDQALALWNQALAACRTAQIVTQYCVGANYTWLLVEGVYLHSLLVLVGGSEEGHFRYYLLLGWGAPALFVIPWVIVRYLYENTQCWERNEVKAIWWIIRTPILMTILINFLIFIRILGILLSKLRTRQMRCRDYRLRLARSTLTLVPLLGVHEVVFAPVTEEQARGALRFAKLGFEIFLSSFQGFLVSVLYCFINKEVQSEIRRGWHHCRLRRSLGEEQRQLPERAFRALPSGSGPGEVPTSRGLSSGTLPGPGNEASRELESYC
assay_summary: cell-based or functional assay
Non-standard residues stand in square brackets, D forms with d. Groups on a side chain read outwards from the residue. Primed or numbered codes have the meaning given here. No end group written: not given here. *: point of attachment. Stearoyl = CCCCCCCCCCCCCCCCCC(=O)*; αMeF = C[C@](N)(Cc1ccccc1)C(=O)O; αMeK = C[C@](N)(CCCCN)C(=O)O; Lauroyl = CCCCCCCCCCCC(=O)*; αMeS = C[C@](N)(CO)C(=O)O; PEG2′ = not defined here; Aib = CC(C)(N)C(=O)O
Output spec: scalar in µM, unitless text.

H[Aib]EGS[αMeF]TSDV[αMeS]S[αMeF]LEGEAA[αMeK]E[αMeF]IA[αMeF]VVK([PEG2′-PEG2′-Stearoyl])GG-NH2 [SEQ ID NO 189]	0.027
H[Aib]EGS[αMeF]TSDV[αMeS]S[αMeF]LEGEAA[αMeK]E[αMeF]IA[αMeF]VVK([PEG2′-Lauroyl])GG-NH2 [SEQ ID NO 170]	0.028

Ask: Consider the binder H[Aib]EGS[αMeF]TSDV[αMeS]S[αMeF]LEGEAA[αMeK]E[αMeF]IA[αMeF]VVK([PEG2′-Stearoyl])GG-NH2 [SEQ ID NO 188] and give its measured Primary assay EC50 (cAMP), GIP-R, first run.
Reply: 0.028

Ask: Further, for H[Aib]EGS[αMeF]TSDV[αMeS]S[αMeF]LEGEAA[αMeK]E[αMeF]IA[αMeF]VVK([PEG2′-PEG2′-PEG2′-Stearoyl])GG-NH2 [SEQ ID NO 199] ?
Reply: 0.025

Data origin, for the record: patent US20200079833A1
